# EC50 per entry
# target of assay: Vasopressin V1a receptor (Homo sapiens)
# Sequence (P37288 whole entry): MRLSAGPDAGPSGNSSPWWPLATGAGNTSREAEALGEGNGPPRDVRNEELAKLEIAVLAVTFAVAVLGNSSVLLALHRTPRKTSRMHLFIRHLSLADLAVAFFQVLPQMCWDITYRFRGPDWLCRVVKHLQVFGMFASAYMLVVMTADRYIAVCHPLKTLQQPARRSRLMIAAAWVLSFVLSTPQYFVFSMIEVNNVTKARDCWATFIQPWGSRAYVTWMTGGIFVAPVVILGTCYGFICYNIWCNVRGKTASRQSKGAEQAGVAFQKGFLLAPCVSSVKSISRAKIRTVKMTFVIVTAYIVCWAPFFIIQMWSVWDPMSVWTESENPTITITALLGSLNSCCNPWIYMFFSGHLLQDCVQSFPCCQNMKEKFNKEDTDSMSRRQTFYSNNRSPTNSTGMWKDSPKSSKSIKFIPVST
# test name: Agonist activity at recombinant human vasopressin V1a receptor expressed in HEK293 cells by luciferase reporter gene assay
# Assay type: functional, cell-based
# condition label: read-out: EC50
Bridge positions count the residues as written; N and C are the ends. Square brackets hold non-standard residues; d marks the D form. Peptide text beside a SMILES is read from it. Orn = NCCC[C@H](N)C(=O)O; Dab = NCC[C@H](N)C(=O)O; Ac4c = NC1(C(=O)O)CCC1

[
  {
    "compound": "CC[C@H](C)[C@@H]1NC(=O)[C@H](Cc2ccccc2)NC(=O)[C@@H](N)CSSC[C@@H](C(=O)N2CCC[C@H]2C(=O)N[C@@H](CCN)C(=O)NCC(N)=O)NC(=O)[C@H](CC(N)=O)NC(=O)[C@H](CC(=O)NC)NC1=O (H-CFID(NHMe)NCP[Dab]G-NH2; disulfide 1-6)",
    "EC50": "3.9 nM"
  },
  {
    "compound": "CC[C@H](C)[C@@H]1NC(=O)[C@H](Cc2ccccc2)NC(=O)[C@@H](N)CSSC[C@@H](C(=O)N2CCC[C@H]2C(=O)N[C@@H](CCCN)C(=O)NCC(N)=O)NC(=O)[C@H](CC(N)=O)NC(=O)[C@H](CCC(=O)NC)NC1=O (H-CFIE(NHMe)NCP[Orn]G-NH2; disulfide 1-6)",
    "EC50": "6 nM"
  },
  {
    "compound": "CC[C@H](C)[C@@H]1NC(=O)C2(CCC2)NC(=O)[C@@H](N)CSSC[C@@H](C(=O)N2CCC[C@H]2C(=O)N[C@@H](CCN)C(=O)NCC(N)=O)NC(=O)[C@H](CC(N)=O)NC(=O)[C@H](CCC(N)=O)NC1=O (H-C[Ac4c]IQNCP[Dab]G-NH2; disulfide 1-6)",
    "EC50": "0.94 nM"
  },
  {
    "compound": "CC[C@H](C)[C@@H]1NC(=O)[C@H](Cc2ccccc2)NC(=O)[C@@H](N)CSSC[C@@H](C(=O)N2CCC[C@H]2C(=O)N[C@@H](CCCNC(C)C)C(=O)NCC(N)=O)NC(=O)[C@H](CC(N)=O)NC(=O)[C@H](CCCC(N)=O)NC1=O",
    "EC50": "2.4 nM"
  }
]

----------
# target of assay: Vasopressin V1b receptor (Homo sapiens, UniProt P47901)
# Sequence (P47901 whole entry): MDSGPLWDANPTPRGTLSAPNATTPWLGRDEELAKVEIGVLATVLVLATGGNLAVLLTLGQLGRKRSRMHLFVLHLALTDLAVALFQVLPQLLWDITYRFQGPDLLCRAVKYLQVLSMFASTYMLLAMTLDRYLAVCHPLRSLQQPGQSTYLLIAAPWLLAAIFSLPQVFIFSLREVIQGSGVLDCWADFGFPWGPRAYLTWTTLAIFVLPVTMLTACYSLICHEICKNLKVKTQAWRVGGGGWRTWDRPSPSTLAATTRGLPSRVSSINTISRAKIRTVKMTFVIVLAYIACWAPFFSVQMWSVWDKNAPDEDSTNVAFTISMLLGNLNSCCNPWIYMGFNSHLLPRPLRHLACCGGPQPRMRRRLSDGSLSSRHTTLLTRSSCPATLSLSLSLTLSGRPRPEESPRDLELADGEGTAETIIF
# test name: Agonist activity at recombinant human vasopressin V1b receptor expressed in Flp-In-293 cells by luciferase reporter gene assay
# Format: functional, cell-based
# condition label: read-out: EC50
Bridge positions count the residues as written; N and C are the ends. Square brackets hold non-standard residues; d marks the D form. Peptide text beside a SMILES is read from it. Ala(2-furyl) = N[C@@H](Cc1ccco1)C(=O)O; Dab(iPr) = CC(C)NCC[C@H](N)C(=O)O; 2Thi = N[C@@H](Cc1cccs1)C(=O)O; Aad = N[C@@H](CCCC(=O)O)C(=O)O; Orn = NCCC[C@H](N)C(=O)O; Dab = NCC[C@H](N)C(=O)O; Ac4c = NC1(C(=O)O)CCC1
experimental readout: log10(EC50) (log10 of the value in nM)

[
  {
    "compound": "CC[C@H](C)[C@@H]1NC(=O)[C@H](Cc2ccccc2)NC(=O)[C@@H](N)CSSC[C@@H](C(=O)N2CCC[C@H]2C(=O)N[C@@H](CCNC(C)C)C(=O)NCC(N)=O)NC(=O)[C@H](CC(N)=O)NC(=O)[C@H](CCCC(N)=O)NC1=O (H-CFI[Aad](NH2)NCP[Dab(iPr)]G-NH2; disulfide 1-6)",
    "value measured": 2.98
  },
  {
    "compound": "CC[C@H](C)[C@@H]1NC(=O)[C@H](Cc2ccccc2)NC(=O)[C@@H](N)CSSC[C@@H](C(=O)N2CCC[C@H]2C(=O)N[C@@H](CCN)C(=O)NCC(N)=O)NC(=O)[C@H](CC(N)=O)NC(=O)[C@H](CC(N)=O)NC1=O (H-CFINNCP[Dab]G-NH2; disulfide 1-6)",
    "value measured": 1.57
  },
  {
    "compound": "CC[C@H](C)[C@@H]1NC(=O)[C@H](Cc2cccs2)NC(=O)[C@@H](N)CSSC[C@@H](C(=O)N2CCC[C@H]2C(=O)N[C@@H](CCN)C(=O)NCC(N)=O)NC(=O)[C@H](CC(N)=O)NC(=O)[C@H](CC(N)=O)NC1=O (H-C[2Thi]INNCP[Dab]G-NH2; disulfide 1-6)",
    "value measured": 2.71
  },
  {
    "compound": "CC[C@H](C)[C@@H]1NC(=O)[C@H](Cc2ccccc2)NC(=O)[C@@H](N)CSSC[C@@H](C(=O)N2CCC[C@H]2C(=O)N[C@@H](CCCN)C(=O)NCC(N)=O)NC(=O)[C@H](CC(N)=O)NC(=O)[C@H](CCC(=O)NC)NC1=O (H-CFIE(NHMe)NCP[Orn]G-NH2; disulfide 1-6)",
    "value measured": 1.77
  },
  {
    "compound": "CC[C@H](C)[C@@H]1NC(=O)C2(CCC2)NC(=O)[C@@H](N)CSSC[C@@H](C(=O)N2CCC[C@H]2C(=O)N[C@@H](CCN)C(=O)NCC(N)=O)NC(=O)[C@H](CC(N)=O)NC(=O)[C@H](CCC(N)=O)NC1=O (H-C[Ac4c]IQNCP[Dab]G-NH2; disulfide 1-6)",
    "value measured": 1.81
  },
  {
    "compound": "CC[C@H](C)[C@@H]1NC(=O)[C@H](Cc2ccccc2)NC(=O)[C@@H](N)CSSC[C@@H](C(=O)N2CCC[C@H]2C(=O)N[C@@H](CCCNC(C)C)C(=O)NCC(N)=O)NC(=O)[C@H](CC(N)=O)NC(=O)[C@H](CCCC(N)=O)NC1=O",
    "value measured": 2.53
  },
  {
    "compound": "CC[C@H](C)[C@@H]1NC(=O)[C@H](Cc2ccco2)NC(=O)[C@@H](N)CSSC[C@@H](C(=O)N2CCC[C@H]2C(=O)N[C@@H](CCCN)C(=O)NCC(N)=O)NC(=O)[C@H](CC(N)=O)NC(=O)[C@H](CC(N)=O)NC1=O (H-C[Ala(2-furyl)]INNCP[Orn]G-NH2; disulfide 1-6)",
    "value measured": 2.72
  }
]

----------
# target of assay: Vasopressin V2 receptor (Homo sapiens)
# Sequence (P30518 whole entry): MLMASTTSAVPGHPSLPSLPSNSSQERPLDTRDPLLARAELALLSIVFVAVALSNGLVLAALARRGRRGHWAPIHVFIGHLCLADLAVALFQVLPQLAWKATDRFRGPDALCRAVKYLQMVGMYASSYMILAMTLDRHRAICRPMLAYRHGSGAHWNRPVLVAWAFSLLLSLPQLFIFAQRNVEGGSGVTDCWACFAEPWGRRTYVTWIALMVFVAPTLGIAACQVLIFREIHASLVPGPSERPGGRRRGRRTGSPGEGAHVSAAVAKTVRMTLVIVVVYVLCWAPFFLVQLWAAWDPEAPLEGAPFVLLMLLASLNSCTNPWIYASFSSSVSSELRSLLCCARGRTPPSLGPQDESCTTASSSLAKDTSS
# test name: Agonist activity at recombinant human vasopressin V2 receptor expressed in HEK293 cells by luciferase reporter gene assay
# Format: functional, cell-based
# condition label: read-out: EC50
pEC50: −log10 of the molar value. Numbered stars: 1 amine (or outer) side, 2 acyl side, 3 side chain; on linkers, the order of the positions; unused ones are H or OH. Bridge positions count the residues as written; N and C are the ends. Square brackets hold non-standard residues; d marks the D form. Peptide text beside a SMILES is read from it. X1 = CCNCCC[C@H](N[*:1])C(=O)[*:2]; 2Thi = N[C@@H](Cc1cccs1)C(=O)O; Dab = NCC[C@H](N)C(=O)O; Ac4c = NC1(C(=O)O)CCC1
Below, each of the molecules is paired with its reported pEC50 value.

[
  {
    "molecule": "CC[C@H](C)[C@@H]1NC(=O)[C@H](Cc2cccs2)NC(=O)[C@@H](N)CSSC[C@@H](C(=O)N2CCC[C@H]2C(=O)N[C@@H](CCN)C(=O)NCC(N)=O)NC(=O)[C@H](CC(N)=O)NC(=O)[C@H](CCC(N)=O)NC1=O (H-C[2Thi]IQNCP[Dab]G-NH2; disulfide 1-6)",
    "target of assay": "Vasopressin V2 receptor (Homo sapiens)",
    "pEC50": 6.92
  },
  {
    "molecule": "CC[C@H](C)[C@@H]1NC(=O)C2(CCC2)NC(=O)[C@@H](N)CSSC[C@@H](C(=O)N2CCC[C@H]2C(=O)N[C@@H](CCN)C(=O)NCC(N)=O)NC(=O)[C@H](CC(N)=O)NC(=O)[C@H](CCC(N)=O)NC1=O (H-C[Ac4c]IQNCP[Dab]G-NH2; disulfide 1-6)",
    "target of assay": "Vasopressin V2 receptor (Homo sapiens)",
    "pEC50": 6.42
  },
  {
    "molecule": "CCNCCC[C@H](NC(=O)[C@@H]1CCCN1C(=O)[C@@H]1CSSC[C@H](N)C(=O)N[C@@H](Cc2ccccc2)C(=O)N[C@@H]([C@@H](C)CC)C(=O)N[C@@H](CCC(N)=O)C(=O)N[C@@H](CC(N)=O)C(=O)N1)C(=O)NCC(N)=O (H-CFIQNCP[X1]G-NH2; disulfide 1-6)",
    "target of assay": "Vasopressin V2 receptor (Homo sapiens)",
    "pEC50": 6.59
  }
]

This collection of values is drawn from ChEMBL document CHEMBL1817572.
